Record form. Attribute: pIC50. Fill in for each entry.
Tested on: Malignant KT21-MG1
Assay: Cell viability, MTT assay
Type: cell-based
Conditions: NF2−/−; 72 hrs; MTT
Remember, pIC50 is on a log scale: it is -log10 of the molar concentration.

Prompt: Can you share its pIC50? I mean this compound: `CCn1c(=O)c(-c2ccc(-c3cncc(C)n3)cc2Cl)cc2cnc(NCCC3CCN(C)CC3)nc21`
Completion: 5.70

Prompt: Can you share its pIC50? I mean this compound: `CCn1c(-c2nonc2N)nc2c(C#CC(C)(C)O)ncc(OC[C@H]3CCCNC3)c21`
Completion: 5.37

Prompt: Can you share its pIC50? I mean this compound: `CCn1c(=O)c(-c2ccc(-c3noc(C)n3)cc2Cl)cc2cnc(Nc3ccc(C4CCN(C)CC4)cc3)nc21`
Completion: 5.96

Prompt: Can you share its pIC50? I mean this compound: `CCn1c(=O)c(-c2ccc(-c3cncs3)cc2Cl)cc2cnc(Nc3ccc(N4CCN(C)CC4)cc3)nc21`
Completion: 5.53

Prompt: Can you share its pIC50? I mean this compound: Cc1nc(Nc2[nH]nc3c2CN(C(=O)N[C@H](CN(C)C)c2ccccc2)C3(C)C)c2sccc2n1 [PF3758309, reference compound]
Completion: 6.42

###

Tested on: Arachnoid cell AC07
Experiment: Cell viability, MTT assay
Type: cell-based
Conditions: NF2+/+, 72 hrs
Record form. Attribute: pIC50. Fill in for each entry.
Remember, pIC50 is on a log scale: it is -log10 of the molar concentration.

Prompt: Can you share its pIC50? I mean this molecule: `CCn1c(=O)c(-c2ccc(-c3noc(C)n3)cc2Cl)cc2cnc(Nc3ccc(C4CCN(C)CC4)cc3)nc21`
Completion: 6.54

Prompt: Can you share its pIC50? I mean this molecule: Cc1nc(Nc2[nH]nc3c2CN(C(=O)N[C@H](CN(C)C)c2ccccc2)C3(C)C)c2sccc2n1 [PF3758309, reference compound]
Completion: 5.86

Prompt: Can you share its pIC50? I mean this molecule: `CCn1c(=O)c(-c2ccc(-c3cncs3)cc2Cl)cc2cnc(Nc3ccc(N4CCN(C)CC4)cc3)nc21`
Completion: 5.93

Prompt: Can you share its pIC50? I mean this molecule: `CCn1c(=O)c(-c2ccc(-c3cncc(C)n3)cc2Cl)cc2cnc(NCCC3CCN(C)CC3)nc21`
Completion: 5.91

###

MEASURE_NAME: pIC50
Remember, pIC50 is on a log scale: it is -log10 of the molar concentration.

Prompt: Identify the measured pIC50 of `CCn1c(=O)c(-c2ccc(-c3noc(C)n3)cc2Cl)cc2cnc(Nc3ccc(C4CCN(C)CC4)cc3)nc21` for Pak1 (Homo sapiens, UniProt Q13153).
Completion: 8.70
